// data source = patent US11613522B2

Test system: Pharbitis purpurea
protocol: Post-emergence herbicidal activity against PHBPU
Assay type: in vivo
assaySetup: Ipomoea purpurea, 504 h, dosage 320 g/ha, rated visually after about 3 weeks
assayMetric: pest or weed control at 320 g/ha
Your answer should be a number followed by the unit of measure.

Ask | Hi! What's the reported pest or weed control at 320 g/ha for C=C[C@]1(C(=O)N[C@@H]2CO[C@H](C(=O)NS(=O)(=O)C(F)(F)F)C2)CC(c2cc(F)cc(F)c2)=NO1 (mixture of isomers) on Pharbitis purpurea?
Reply | 80%

Ask | And then CC1(C(=O)NC2COCC2C(=O)N2CCCC2)CC(c2cc(F)cc(F)c2)=NO1 (stereo not drawn) , what is it?
Reply | 80%

Ask | What do we get for C=C[C@]1(C(=O)N[C@@H]2CO[C@H](C(=O)NOC(C)C)C2)CC(c2cc(F)cc(F)c2)=NO1 (mixture of isomers) ?
Reply | 80%

Ask | Also CNC(=O)C1COCC1NC(=O)C1(C)CC(c2cc(F)cc(F)c2)=NO1 (stereo not drawn) , if possible.
Reply | 80%

Ask | How about this compound: CONC(=O)[C@@H]1C[C@H](NC(=O)C2(C)CC(c3cccc(F)c3)=NO2)CO1 (relative stereo)
Reply | 90%

Ask | Follow-up entry: C=C[C@]1(C(=O)N[C@@H]2CO[C@H](C(=O)NC3CC3)C2)CC(c2cc(F)cc(F)c2)=NO1 (mixture of isomers)
Reply | 90%

Ask | Param item: C=CC1(C(=O)N[C@@H]2CO[C@H](C(=O)N3CCCC3)C2)CC(c2cc(F)cc(F)c2)=NO1 (relative stereo)
Reply | 80%

Ask | Can you check C=C[C@]1(C(=O)N[C@H]2CO[C@@H](C(=O)NNC(=O)OC(C)(C)C)C2)CC(c2cc(F)cc(F)c2)=NO1 (mixture of isomers) next?
Reply | 90%

Ask | Note, next up: CC1(C(=O)NC2COCC2C(=O)NC2CC2)CC(c2cc(F)cc(F)c2)=NO1 (stereo not drawn)
Reply | 80%

Ask | Follow-up entry: CC1(C(=O)N[C@@H]2CO[C@H](C(=O)NC3CC3)C2)CC(c2cc(F)cc(F)c2)=NO1 (relative stereo)
Reply | 80%

Ask | What do you get for C=C[C@]1(C(=O)N[C@@H]2CO[C@H](C(=O)NOC)C2)CC(c2cc(F)cc(F)c2)=NO1 (mixture of isomers) ?
Reply | 80%

Ask | C=C[C@]1(C(=O)N[C@@H]2CO[C@H](C(=O)NOCC)C2)CC(c2cc(F)cc(F)c2)=NO1 (mixture of isomers) , same question.
Reply | 80%

Ask | Next up: C=CC1(C(=O)N[C@@H]2CO[C@H](C(=O)NC)C2)CC(c2cc(F)cc(F)c2)=NO1 (relative stereo)
Reply | 90%

Ask | Moving on to C=C[C@]1(C(=O)N[C@@H]2CO[C@H](C(=O)NS(C)(=O)=O)C2)CC(c2cc(F)cc(F)c2)=NO1 (mixture of isomers)
Reply | 80%

Ask | Now give it for CC1(C(=O)N[C@@H]2CO[C@H](C(=O)N3CCCC3)C2)CC(c2cc(F)cc(F)c2)=NO1 (relative stereo) too.
Reply | 80%

Ask | Again, but for CNC(=O)[C@@H]1C[C@H](NC(=O)C2(C)CC(c3cc(F)cc(F)c3)=NO2)CO1 (relative stereo)
Reply | 80%

Ask | Consider next the compound C=C[C@]1(C(=O)N[C@@H]2CO[C@H](C(=O)N(C)C)C2)CC(c2cc(F)cc(F)c2)=NO1 (mixture of isomers) in the same way.
Reply | 80%

Ask | What do you have for C=C[C@]1(C(=O)N[C@@H]2CO[C@H](C(=O)NN(C)C)C2)CC(c2cc(F)cc(F)c2)=NO1 (mixture of isomers) ?
Reply | 80%
